System: VchCAST RNA-guided transposition machinery (E. coli BL21(DE3) host, lacZ target)
Assay: relative integration efficiency (T-LR orientation) vs wild-type transposon end (log2 (normalized fold change)); transposon end mutated: left end; higher = more efficient transposition

| sequence | comparison.symbol | relative integration efficiency (log2) |
| --- | --- | --- |
| AATGTTGTTGATGCAACCATATTCACATATTTAATAATTATTTATAATCAGCAACTTAACCACAAAACAACCATAATAACATATCTCACAAAACAACCATATCAACATATTTTTGTGAATCGAGTATTTCAGCAAAACTACTGCAGTAAGAA | < | -10 |
| AATGTTGTTGATGCAACCATAAAGTGATATTTAATAATTATTTCAACCATATATTGATATCTCACAAAACAACCATAAGTTGATATTTTTGTGAATCGAGTATTTCAGCAAAACTACTGCAGTAAGAAAGTTACTTCGTGGTATGGGAGGAT | = | -3.12 |
| AATGTTGTTGATGCAACCATAAAGTGATATTTAACTCTCTTCTTTAGCAGTCTAGTCTATTGAAACTCAACCATATATTGATATCTCACAAAACAACCATAAGTTGATATTTTTGTGAATCGAGTATTTCAGCAAAACTACTGCAGTAAGAA | = | -5.31 |
| AATGTTGTTGATGCAACCATAAAGTGATATTTAATACAACCATATATTGATATCTCATTATTTATAATCAGCAACTTAACCACAAAAACAAAACAACCATAAGTTGATATTTTTGTGAATCGAGTATTTCAGCAAAACTACTGCAGTAAGAA | = | -3.41 |
| AATGTTGTTGATGCAACCATAAGTTGATATTTTATAATTATTTATAATCAGCAACTTAACCACAAAACACCCATAAATTGATATTGCACAAAAGTTGGTATTCAACTATAAAATGTGAATCGAGTATTTCAGCAAAACTACTGCAGTAAGAA | = | -1.01 |
| AATGTTGTTGATGCACCCATAAATTGATAATTAATAATTATTTATAATCAGCAACTTAACCACAAAACAACCATATATTGATATCTCACAAAAGTTGGTATTCAACTATAAAATGTGAATCGAGTATTTCAGCAAAACTACTGCAGTAAGAA | = | -1.82 |
| AATGTTGTTGATGCAACCATAAAGTGATATTTAATAATTATTTATAATCAGCAACTTAACCACACAACCATATATTGATATCTCAAAACAAAACAACCATAAGTTGATATTTTTGTGAATCGAGTATTTCAGCAAAACTACTGCAGTAAGAA | = | -3.44 |
| AATGTTGTTGATGACCAACGCCCTGTCGCGGGCCGCCGGCGGGCGCCGACTACCAGGCCAACACCCCACCAACGCGCGGTCGCGAGACACCCCACCAACGCCTGGTCGCGGGGGTGTCCGATCTGATTTCAGCAAAACTACTGCAGTAAGAA | < | -10 |
| AATGTTGTTGATGCAACCATAAAGTGATATTTAATAATTATTTATAATCAGCAACTTAACCACAAAACAACCATATATTGATATCACAAAACAACCATAAGTTGATATTTTTGTGAATCGAGTATTTCAGCAAAACTACTGCAGTAAGAAAG | = | -0.718 |
| AATGTTGTTGATGCAACCATAAAGTGATATTTAATAATTATTTATAATCAGCAACTTAACCACAAAACAACCATATATTGATATCTCACAAAACAACCCGCCTGGTCGCGGGGGTGTCCGATCTGATTTCAGCAAAACTACTGCAGTAAGAA | = | -1.63 |
| AATGTTGTTGATGCAACCATAAAATGATAATTAATAATTATTTATAATCAGCAACTTAACCACAAAACAACCATAAAGTGATATTTAACAAAAGTTGGTATTCAACTATAAAATGTGAATCGAGTATTTCAGCAAAACTACTGCAGTAAGAA | = | -0.635 |
| AATGTTGTTGATGCAACCATAAAGTGATATTTAAGCTATACTCTAGGTATCTAACTTGTCCCATTGCCAACCATATATTGATATCTCACAAAACAACCATAAGTTGATATTTTTGTGAATCGAGTATTTCAGCAAAACTACTGCAGTAAGAA | = | -3.91 |
| AATGTTGTTGATGCAACCATAACTGTCGCGGGCCGCCGGCGGGCGCCGACTACCAGGCCAACACCCCACCAACGCGCGGTCGCGAGACACCCCACCAACGCCTGGTCGCGGGGGTGTCCGATCTGATTTCAGCAAAACTACTGCAGTAAGAA | < | -10 |
| AATGTTGTTGATGCAACCATAAAGTGATAGGGCCGCCGGCGGGCGCCGACTACCAGGCCAACACCCCACCAACGCGCGGTCGCGAGACACCCCACCAACGCCTGGTCGCGGGGGTGTCCGATCTGATTTCAGCAAAACTACTGCAGTAAGAA | = | -5.19 |
| AATGTTGTTGATGCAACCATAAAGTGATATTTAATAATTATTTATAATCAGCAACTTAACAACCATATATTGATATCTCCCACAAAAACAAAACAACCATAAGTTGATATTTTTGTGAATCGAGTATTTCAGCAAAACTACTGCAGTAAGAA | = | -3.54 |
| AATGTTGTTGATGCAACCATAAAGTGATATTTAATAATTATTTATAATCAGCAACTTAACCACAAAACAACCATATATTGATATCTCACAAAACAACCATAAGTTGATATTGTGAATCGAGTATTTCAGCAAAACTACTGCAGTAAGAAAGT | = | -0.0935 |
| AATGTTGTTGATGCAACCATAAAGTGATATTTAATAATTACAACCATATATTGATATCTCTTTATAATCAGCAACTTAACCACAAAAACAAAACAACCATAAGTTGATATTTTTGTGAATCGAGTATTTCAGCAAAACTACTGCAGTAAGAA | = | -2.04 |

Entry source: the supplement of paper PMC10201428
